I'd appreciate it if you could supply MBC values for the items below.
System: Vancomycin Resistant Staphylococcus aureus (VRSA)
experimental details: Broth microdilution MIC/MBC, VRSA
Type: cell-based
run parameters: VRSA, VRSA 6, read-out: MBC
Numbers only; they are read as µM.

Task: Look up MBC for this compound: O=C(O)[C@H](Cc1ccccc1)N1C(=O)/C(=C/c2cccc(-c3ccc(Cl)c(Cl)c3)c2)SC1=S [Rh 2]
Result: 16

Task: Next entry: O=C(O)[C@H](Cc1ccccc1)N1C(=O)/C(=C/c2cccc(-c3ccccc3)c2)SC1=S [Rh 5]
Result: 16

Task: And for O=C(O)[C@H](Cc1ccccc1)N1C(=O)/C(=C/c2cccc(Oc3ccc(Cl)c(Cl)c3)c2)SC1=S [Rh 1] ?
Result: 8

Task: Request: O=C(O)[C@@H](Cc1ccccc1)N1C(=O)/C(=C/c2cccc(Cc3ccccc3)c2)SC1=S [Rh 7]
Result: 16

Task: Check O=C(O)[C@H](Cc1ccccc1)N1C(=O)/C(=C/c2cccc(Cc3ccc(Cl)c(Cl)c3)c2)SC1=S [Rh 3] too.
Result: 16

Task: What do we get for O=C(O)[C@@H](Cc1ccccc1)N1C(=O)/C(=C/c2cccc(Oc3ccc(F)cc3)c2)SC1=S [Rh 4] ?
Result: 32

Task: Now this one: O=C(O)[C@H](Cc1ccccc1)N1C(=O)/C(=C/c2cccc(OC/C=C/c3ccc(Cl)c(Cl)c3)c2)SC1=S [Rh 6]
Result: 32

* * *

Tested on: methicillin-resistant Staphylococcus aureus (MRSA)
experimental details: Broth microdilution MIC/MBC, MRSA
Format: cell-based
run parameters: MRSA NRS 119
reported endpoint: MIC (µM)
Write the value in µM as a bare number.

Task: Name the recorded MIC for O=C(O)[C@H](Cc1ccccc1)N1C(=O)/C(=C/c2cccc(OC/C=C/c3ccc(Cl)c(Cl)c3)c2)SC1=S [Rh 6] .
Result: 4

Task: Follow-up entry: O=C(O)[C@H](Cc1ccccc1)N1C(=O)/C(=C/c2cccc(Cc3ccc(Cl)c(Cl)c3)c2)SC1=S [Rh 3]
Result: 8

Task: Next entry: O=C(O)[C@@H](Cc1ccccc1)N1C(=O)/C(=C/c2cccc(Cc3ccccc3)c2)SC1=S [Rh 7]
Result: 8

Task: Next record, please: O=C(O)[C@@H](Cc1ccccc1)N1C(=O)/C(=C/c2cccc(Oc3ccc(F)cc3)c2)SC1=S [Rh 4]
Result: 16

* * *

Tested on: Salmonella Typhimurium
experimental details: MIC with/without sub-MIC colistin, Salmonella Typhimurium
Type: cell-based
run parameters: Salmonella enterica, ATCC 700720 / TYPHIMURIUM
reported endpoint: MIC

Task: Return reported MIC; argument: CC(=O)O[C@H]1C[C@@]2(C)[C@@H](C[C@@H](O)[C@H]3[C@@]4(C)CC[C@@H](O)[C@@H](C)[C@@H]4CC[C@@]32C)/C1=C(\CCC=C(C)C)C(=O)O [Fusidic acid, fusidic acid, reference compound]
Result: > 128 µM

* * *

System: methicillin-resistant Staphylococcus aureus (MRSA)
experimental details: Broth microdilution MIC/MBC, MRSA
Type: cell-based
run parameters: MRSA NRS 386
reported endpoint: MIC (µM)
API: value field is a number in µM; no unit string.

Task: Which MIC value is on record for O=C(O)[C@H](Cc1ccccc1)N1C(=O)/C(=C/c2cccc(-c3ccc(Cl)c(Cl)c3)c2)SC1=S ?
Result: 4

Task: For O=C(O)[C@H](Cc1ccccc1)N1C(=O)/C(=C/c2cccc(Oc3ccc(Cl)c(Cl)c3)c2)SC1=S then?
Result: 8

Task: Please do the same for O=C(O)[C@@H](Cc1ccccc1)N1C(=O)/C(=C/c2cccc(Cc3ccccc3)c2)SC1=S as well.
Result: 8

Task: Please answer likewise for O=C(O)[C@H](Cc1ccccc1)N1C(=O)/C(=C/c2cccc(Cc3ccc(Cl)c(Cl)c3)c2)SC1=S
Result: 8

Task: Please do the same for O=C(O)[C@H](Cc1ccccc1)N1C(=O)/C(=C/c2cccc(-c3ccccc3)c2)SC1=S as well.
Result: 8

Task: Can you check O=C(O)[C@@H](Cc1ccccc1)N1C(=O)/C(=C/c2cccc(Oc3ccc(F)cc3)c2)SC1=S next?
Result: 16

Task: And then O=C(O)[C@H](Cc1ccccc1)N1C(=O)/C(=C/c2cccc(OC/C=C/c3ccc(Cl)c(Cl)c3)c2)SC1=S , what is it?
Result: 4
